Ref: patent US6355799B1

test system: barnyardgrass (Echinochloa crus-galli, ECHCG); experiment: Post-emerge test, greenhouse herbicide activity screening; assay type: in vivo; conditions: 250 g ai/ha; phytotoxicity rating 0-100 (0 no damage, 100 complete death), 14 days after application
Assign Post-emerge Herbicidal Activity ECHCG to each entry below.

As a guide, the following entries are already answered.
Which Post-emerge Herbicidal Activity ECHCG reading was recorded for the compound CCc1ccc(C(=O)Nc2c(OC)c(Cl)cc(F)c2-n2c(=O)cc(C(F)(F)F)n(C)c2=O)cc1 [2-27] ?
80

Which Post-emerge Herbicidal Activity ECHCG reading was recorded for the compound COc1c(Cl)cc(F)c(-n2c(=O)cc(C(F)(F)F)n(C)c2=O)c1N(C(=O)C1CC1)C(=O)C1CC1 [2-18] ?
0

Which Post-emerge Herbicidal Activity ECHCG reading was recorded for the compound COc1c(Cl)cc(F)c(-n2c(=O)cc(C(F)(F)F)n(C)c2=O)c1N=CN(C)C [Compound 1-31] ?
0

Then this compound:
Which Post-emerge Herbicidal Activity ECHCG reading was recorded for the compound C=CC(=O)N(C(=O)C=C)c1c(OC)c(Cl)cc(F)c1-n1c(=O)cc(C(F)(F)F)n(C)c1=O [2-4] ?
0

###

system: upland rice (Oryza sp., var. Tebonnet, RICE); assay: Post-emerge test, crop safety; type: in vivo; conditions: post-emerge, 63 g ai/ha, 14 days after application, rating scale 0-100
OUTCOME_MEASURE: phytotoxicity rating RICE
Numbers only.

As a guide, the following entries are already answered.
Record COc1c(Cl)cc(F)c(-n2c(=O)cc(C(F)(F)F)n(C)c2=O)c1NC(=O)c1ccc(F)cc1 [2-40] : what is its phytotoxicity rating RICE with upland rice (Oryza sp., var. Tebonnet, RICE)?
50

Record COc1c(Cl)cc(F)c(-n2c(=O)cc(C(F)(F)F)n(C)c2=O)c1NC(=O)CC#N [2-14] : what is its phytotoxicity rating RICE with upland rice (Oryza sp., var. Tebonnet, RICE)?
60

For every item below, please supply its phytotoxicity rating RICE.
1. COc1c(Cl)cc(F)c(-n2c(=O)cc(C(F)(F)F)n(C)c2=O)c1NC(=O)c1ccc(F)c(F)c1 [2-48]
2. COc1c(Cl)cc(F)c(-n2c(=O)cc(C(F)(F)F)n(C)c2=O)c1NC(=O)COCc1ccccc1 [2-89]
3. COc1c(Cl)cc(F)c(-n2c(=O)cc(C(F)(F)F)n(C)c2=O)c1NC(=O)c1cccc(Cl)c1 [2-54]
4. COc1c(Cl)cc(F)c(-n2c(=O)cc(C(F)(F)F)n(C)c2=O)c1NC(=O)CCc1ccccc1 [2-86]
5. COc1c(Cl)cc(F)c(-n2c(=O)cc(C(F)(F)F)n(C)c2=O)c1NC(=O)C=Cc1ccccc1 [2-78]
6. COc1c(Cl)cc(F)c(-n2c(=O)cc(C(F)(F)F)n(N)c2=O)c1NC(=O)c1ccc(F)cc1F [2-44]

1: 80; 2: 60; 3: 90; 4: 80; 5: 50; 6: 0

###

tested on: common ragweed (Ambrosia artemisizfolia L., AMBEL); experiment: Pre-emerge test, greenhouse herbicide activity screening; assay type: in vivo; conditions: 250 g ai/ha; rated 14 days after application; 0 = no damage, 100 = complete death
OUTCOME_MEASURE: Pre-emerge Herbicidal Activity, phytotoxicity rating (0-100), AMBEL
Give bare numbers.

As a guide, the following entries are already answered.
Which Pre-emerge Herbicidal Activity, phytotoxicity rating (0-100), AMBEL reading was recorded for the compound "COc1c(Cl)cc(F)c(-n2c(=O)cc(C(F)(F)F)n(C)c2=O)c1NC(=O)c1ccc(F)cc1" ?
100

Which Pre-emerge Herbicidal Activity, phytotoxicity rating (0-100), AMBEL reading was recorded for the compound "COc1c(Cl)cc(F)c(-n2c(=O)cc(C(F)(F)F)n(C)c2=O)c1NC(=O)c1cc([N+](=O)[O-])cc([N+](=O)[O-])c1" ?
30

Which Pre-emerge Herbicidal Activity, phytotoxicity rating (0-100), AMBEL reading was recorded for the compound "COc1c(Cl)cc(F)c(-n2c(=O)cc(C(F)(F)F)n(C)c2=O)c1NC(=O)c1cc(F)cc(F)c1" ?
100

Then this compound:
Which Pre-emerge Herbicidal Activity, phytotoxicity rating (0-100), AMBEL reading was recorded for the compound "COc1c(Cl)cc(F)c(-n2c(=O)cc(C(F)(F)F)n(C)c2=O)c1NC(=O)c1c(F)cccc1F" ?
100
